List of shrunken log2 fold change values.
- Test system: Escherichia coli TOP10
- assay.info: shrunken log2 fold change of peptide-encoding DNA abundance (4.5 h post-induction vs induction); higher = less antimicrobial activity (less host growth inhibition)
- experimental.context: time post-induction: 4.5 h; library: site-saturation at positions 5, 18, 19, 20

| chain | shrunken log2 fold change |
| --- | --- |
| RRIRVRPPRLPRPRPRPKVYPRP | -0.433 |

So, "RRIRIRPPRLPRPRPRPNRPPRP" ? Its shrunken log2 fold change was -0.212

So, "RRIRIRPPRLPRPRPRPECCPRP" ? Its shrunken log2 fold change was 0.0559

So, "RRIRYRPPRLPRPRPRPPNVPRP" ? Its shrunken log2 fold change was 0.0158

So, "RRIRNRPPRLPRPRPRPTLNPRP" ? Its shrunken log2 fold change was -0.105

So, "RRIRERPPRLPRPRPRPYISPRP" ? Its shrunken log2 fold change was -0.977

So, "RRIRLRPPRLPRPRPRPWWKPRP" ? Its shrunken log2 fold change was -0.198

---

- System: Escherichia coli TOP10
- assay.info: shrunken log2 fold change of peptide-encoding DNA abundance (4.5 h post-induction vs induction); higher = less antimicrobial activity (less host growth inhibition)
- experimental.context: time post-induction: 4.5 h; library: site-saturation at positions 5, 18, 19, 20
test.readout: shrunken log2 fold change
When you answer, write just the number.

Worked cases, answers included:
| chain | test.readout | test.value |
| --- | --- | --- |
| RRIRNRPPRLPRPRPRPVEHPRP | shrunken log2 fold change | -0.123 |
| RRIRHRPPRLPRPRPRPRFWPRP | shrunken log2 fold change | 0.112 |

Entry "RRIRHRPPRLPRPRPRPCVLPRP" : shrunken log2 fold change on Escherichia coli TOP10 = -0.14

Entry "RRIRNRPPRLPRPRPRPYARPRP" : shrunken log2 fold change on Escherichia coli TOP10 = -0.0034

---

- Test system: Escherichia coli TOP10
- assay.info: shrunken log2 fold change of peptide-encoding DNA abundance (4.5 h post-induction vs induction); higher = less antimicrobial activity (less host growth inhibition)
- experimental.context: time post-induction: 4.5 h; library: site-saturation at positions 5, 18, 19, 20
List of shrunken log2 fold change values.
When you answer, write just the number.

| chain | test.readout | test.value |
| --- | --- | --- |
| RRIRERPPRLPRPRPRPPNQPRP | shrunken log2 fold change | -0.118 |
| RRIRNRPPRLPRPRPRPTVCPRP | shrunken log2 fold change | -0.0905 |

So, "RRIRLRPPRLPRPRPRPWWEPRP" ? Its shrunken log2 fold change was 0.176

So, "RRIRWRPPRLPRPRPRPYAPPRP" ? Its shrunken log2 fold change was -0.232

So, "RRIRQRPPRLPRPRPRPVREPRP" ? Its shrunken log2 fold change was -0.00762

So, "RRIRDRPPRLPRPRPRPCMNPRP" ? Its shrunken log2 fold change was 0.119

So, "RRIRERPPRLPRPRPRPDSEPRP" ? Its shrunken log2 fold change was -0.0854

So, "RRIRERPPRLPRPRPRPDRVPRP" ? Its shrunken log2 fold change was 0.00251

So, "RRIRRRPPRLPRPRPRPNMCPRP" ? Its shrunken log2 fold change was -0.368

So, "RRIRFRPPRLPRPRPRPVAWPRP" ? Its shrunken log2 fold change was 0.119

So, "RRIRRRPPRLPRPRPRPLECPRP" ? Its shrunken log2 fold change was 0.0527

---

- System: Escherichia coli TOP10
- assay.info: shrunken log2 fold change of peptide-encoding DNA abundance (4.5 h post-induction vs induction); higher = less antimicrobial activity (less host growth inhibition)
- experimental.context: time post-induction: 4.5 h; library: site-saturation at positions 5, 18, 19, 20
List of shrunken log2 fold change values.

Worked cases, answers included:
| chain | shrunken log2 fold change |
| --- | --- |
| RRIRDRPPRLPRPRPRPFSVPRP | -0.0199 |
| RRIRDRPPRLPRPRPRPHYEPRP | -0.0202 |
| RRIRDRPPRLPRPRPRPLVAPRP | 0.912 |
| RRIRTRPPRLPRPRPRPAAPPRP | 0.275 |

Proceed to the following item.
So, "RRIRDRPPRLPRPRPRPTHWPRP" ? Its shrunken log2 fold change was 0.192

---

- Test system: Escherichia coli TOP10
- assay.info: shrunken log2 fold change of peptide-encoding DNA abundance (4.5 h post-induction vs induction); higher = less antimicrobial activity (less host growth inhibition)
- experimental.context: time post-induction: 4.5 h; library: site-saturation at positions 5, 18, 19, 20
List of shrunken log2 fold change values.

| chain | test.value |
| --- | --- |
| RRIRKRPPRLPRPRPRPNHHPRP | -0.182 |
| RRIRRRPPRLPRPRPRPSRAPRP | 0.369 |
| RRIRNRPPRLPRPRPRPQAAPRP | -0.0424 |

So, "RRIRWRPPRLPRPRPRPDDDPRP" ? Its shrunken log2 fold change was 3.98

---

- Test system: Escherichia coli TOP10
- assay.info: shrunken log2 fold change of peptide-encoding DNA abundance (4.5 h post-induction vs induction); higher = less antimicrobial activity (less host growth inhibition)
- experimental.context: time post-induction: 4.5 h; library: site-saturation at positions 5, 18, 19, 20
List of shrunken log2 fold change values.

Worked cases, answers included:
| chain | test.readout | test.value |
| --- | --- | --- |
| RRIRTRPPRLPRPRPRPFCQPRP | shrunken log2 fold change | 0.101 |
| RRIRSRPPRLPRPRPRPSVKPRP | shrunken log2 fold change | -0.068 |
| RRIRWRPPRLPRPRPRPSTAPRP | shrunken log2 fold change | 0.316 |
| RRIRWRPPRLPRPRPRPWLSPRP | shrunken log2 fold change | -0.0459 |
| RRIRHRPPRLPRPRPRPAYQPRP | shrunken log2 fold change | -0.0802 |

Proceed to the following item.
Entry "RRIRRRPPRLPRPRPRPVEGPRP" : shrunken log2 fold change on Escherichia coli TOP10 = 0.268

---

- Tested on: Escherichia coli TOP10
- assay.info: shrunken log2 fold change of peptide-encoding DNA abundance (4.5 h post-induction vs induction); higher = less antimicrobial activity (less host growth inhibition)
- experimental.context: time post-induction: 4.5 h; library: site-saturation at positions 5, 18, 19, 20
test.readout: shrunken log2 fold change

Worked cases, answers included:
| chain | test.readout | test.value |
| --- | --- | --- |
| RRIRSRPPRLPRPRPRPKSMPRP | shrunken log2 fold change | -0.269 |
| RRIRMRPPRLPRPRPRPYRVPRP | shrunken log2 fold change | 0.111 |
| RRIRPRPPRLPRPRPRPWDRPRP | shrunken log2 fold change | 0.0969 |
| RRIRYRPPRLPRPRPRPNRLPRP | shrunken log2 fold change | -0.0455 |

So, "RRIRVRPPRLPRPRPRPCIEPRP" ? Its shrunken log2 fold change was -0.351

So, "RRIRYRPPRLPRPRPRPVQVPRP" ? Its shrunken log2 fold change was 0.0039

So, "RRIRHRPPRLPRPRPRPSQMPRP" ? Its shrunken log2 fold change was 0.0205

---

- System: Escherichia coli TOP10
- assay.info: shrunken log2 fold change of peptide-encoding DNA abundance (4.5 h post-induction vs induction); higher = less antimicrobial activity (less host growth inhibition)
- experimental.context: time post-induction: 4.5 h; library: site-saturation at positions 5, 18, 19, 20
test.readout: shrunken log2 fold change
When you answer, write just the number.

| chain | shrunken log2 fold change |
| --- | --- |
| RRIRYRPPRLPRPRPRPQFVPRP | 0.119 |
| RRIRTRPPRLPRPRPRPVRKPRP | 0.00119 |

So, "RRIRDRPPRLPRPRPRPTSWPRP" ? Its shrunken log2 fold change was 0.989

So, "RRIRLRPPRLPRPRPRPDLSPRP" ? Its shrunken log2 fold change was -0.112

So, "RRIRARPPRLPRPRPRPMWFPRP" ? Its shrunken log2 fold change was 0.0716

So, "RRIRQRPPRLPRPRPRPRVHPRP" ? Its shrunken log2 fold change was -0.163

So, "RRIRRRPPRLPRPRPRPEDKPRP" ? Its shrunken log2 fold change was 0.103

So, "RRIRVRPPRLPRPRPRPERMPRP" ? Its shrunken log2 fold change was -0.0652

---

List of shrunken log2 fold change values.
- Test system: Escherichia coli TOP10;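 note: peptides expressed intracellularly from a pBAD plasmid library in pooled LB shake-flask culture, induced with 0.3% L-arabinose, DNA abundance read by NGS, three biological replicates, DESeq2 with apeglm shrinkage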
- assay.info: shrunken log2 fold change of peptide-encoding DNA abundance (4.5 h post-induction vs induction); higher = less antimicrobial activity (less host growth inhibition)
- experimental.context: time post-induction: 4.5 h; library: site-saturation at positions 5, 18, 19, 20

| chain | test.readout | test.value |
| --- | --- | --- |
| RRIRYRPPRLPRPRPRPAAYPRP | shrunken log2 fold change | -0.387 |
| RRIRDRPPRLPRPRPRPLVTPRP | shrunken log2 fold change | 0.486 |
| RRIRFRPPRLPRPRPRPKHSPRP | shrunken log2 fold change | -0.434 |
| RRIRHRPPRLPRPRPRPLYVPRP | shrunken log2 fold change | -0.272 |
| RRIRSRPPRLPRPRPRPKILPRP | shrunken log2 fold change | -0.112 |
| RRIRRRPPRLPRPRPRPVHAPRP | shrunken log2 fold change | 0.67 |
| RRIRARPPRLPRPRPRPDANPRP | shrunken log2 fold change | 0.275 |
| RRIRDRPPRLPRPRPRPDTAPRP | shrunken log2 fold change | -0.0593 |

So, "RRIRARPPRLPRPRPRPTKAPRP" ? Its shrunken log2 fold change was 0.437

So, "RRIRIRPPRLPRPRPRPHYMPRP" ? Its shrunken log2 fold change was -0.943

So, "RRIRKRPPRLPRPRPRPSTDPRP" ? Its shrunken log2 fold change was -0.135

So, "RRIRRRPPRLPRPRPRPKLGPRP" ? Its shrunken log2 fold change was 0.141

So, "RRIRKRPPRLPRPRPRPKPQPRP" ? Its shrunken log2 fold change was 0.927

So, "RRIRSRPPRLPRPRPRPSKCPRP" ? Its shrunken log2 fold change was -0.0382

So, "RRIRARPPRLPRPRPRPGGEPRP" ? Its shrunken log2 fold change was 0.694

So, "RRIRHRPPRLPRPRPRPQTRPRP" ? Its shrunken log2 fold change was -0.148

So, "RRIRHRPPRLPRPRPRPFCLPRP" ? Its shrunken log2 fold change was -0.262

So, "RRIRCRPPRLPRPRPRPIRPPRP" ? Its shrunken log2 fold change was -0.0704

So, "RRIRFRPPRLPRPRPRPVAQPRP" ? Its shrunken log2 fold change was 0.0899

So, "RRIRHRPPRLPRPRPRPRMLPRP" ? Its shrunken log2 fold change was -0.192

So, "RRIRPRPPRLPRPRPRPYHGPRP" ? Its shrunken log2 fold change was 0.0397

So, "RRIRPRPPRLPRPRPRPIINPRP" ? Its shrunken log2 fold change was -0.909
